Cited source: the supplement of paper PMC12042874

Experimental Details: amyloid nucleation score (Sup35N fusion, yeast selection) (log enrichment); library NNK2; higher = more nucleation; inactive = no reads after selection;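 note: zero at mode of non-aggregating sequences after 7 days selection at 30°C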
Assay Readout: amyloid nucleation score
Enter a number only.

Known amyloid nucleation score results, listed for orientation:
INSERT INTO assay_data (substance, meas_value) VALUES
  ('RLDWREVHWLVRKTLL', 0.648),
  ('KSCDIL', -0.335),
  ('IFSHFILCKQAAVCTVNEFR', 5.08),
  ('CMGFSSLFFQGWVVIDCLW', -1.1),
  ('IWTDVRLGGRDIVLDSRVYF', 2.14);

query: Identify measured amyloid nucleation score corresponding to KCRISAMICDKAIFRVKRAC
result: 1.13

query: Identify measured amyloid nucleation score corresponding to YVVYMVFGR
result: 6.32

query: Identify measured amyloid nucleation score corresponding to KTCRFLCA
result: 0.176

query: Identify measured amyloid nucleation score corresponding to SYSLIVE
result: 0.919

query: Identify measured amyloid nucleation score corresponding to ECYDFYTWESYGLGCTSCEK
result: -0.01

====

Experimental Details: amyloid nucleation score (Sup35N fusion, yeast selection) (log enrichment); library NNK1; higher = more nucleation; inactive = no reads after selection
Assay Readout: amyloid nucleation score
Enter a number only.

Known amyloid nucleation score results, listed for orientation:
INSERT INTO results (sequence_data, assay_readout, meas_value) VALUES
  ('MYTQGMYQEDSRDGNGW', 'amyloid nucleation score', -0.189),
  ('NLRHALRMVTNGLSCTRKHG', 'amyloid nucleation score', -0.278),
  ('ACLATNCVSFANFASCCWGW', 'amyloid nucleation score', 7.15);

query: Identify measured amyloid nucleation score corresponding to FGLYYLSNSEFMYVDRFHLG
result: -0.575

query: Identify measured amyloid nucleation score corresponding to RVFQSNPCGT
result: 0.109

query: Identify measured amyloid nucleation score corresponding to FADNWLCKIRYSCGISLSKY
result: -0.739

query: Identify measured amyloid nucleation score corresponding to LLVGMPPNIDM
result: -0.078

====

Experimental Details: amyloid nucleation score (Sup35N fusion, yeast selection) (log enrichment); library NNK1; higher = more nucleation; inactive = no reads after selection
substances and their reported amyloid nucleation score
Enter a number only.

Known amyloid nucleation score results, listed for orientation:
INSERT INTO results (substance, meas_value) VALUES
  ('YVMQSATDVETSNSGIS', 0.525),
  ('SMYSNRHHDWFR', -0.412),
  ('AMMPLVLNQVVFDVAALTNR', 7.68),
  ('FPEWNSWYQRRVMAKGAHGY', 0.58),
  ('SRKKKIVITEPNHSSRHQSV', 0.003);

query: Identify measured amyloid nucleation score corresponding to LWSTMICLVFMYPIILVNFT
result: 1.64

query: Identify measured amyloid nucleation score corresponding to MHRESR
result: 1.2

query: Identify measured amyloid nucleation score corresponding to FAYKVLTLMNKPEGKVQSDV
result: -1.41

====

Experimental Details: amyloid nucleation score (Sup35N fusion, yeast selection) (log enrichment); library NNK1; higher = more nucleation; inactive = no reads after selection
Assay Readout: amyloid nucleation score
Enter a number only.

Known amyloid nucleation score results, listed for orientation:
INSERT INTO results (substance, assay_readout, meas_value) VALUES
  ('IYPRMCLRGFAACV', 'amyloid nucleation score', 2.91),
  ('IFLVCVSKN', 'amyloid nucleation score', 0.601),
  ('ERPTWVGGDGSSGLVVGSDL', 'amyloid nucleation score', -0.22),
  ('YWDYNNFRFFLRKLSFISRL', 'amyloid nucleation score', 0.822),
  ('MNASITFSVLWVACETKCRV', 'amyloid nucleation score', 3.42),
  ('LLIGYWLNLECLRYEMCHVL', 'amyloid nucleation score', -0.396);

query: Identify measured amyloid nucleation score corresponding to ASFEKFNNVTLGCSTDSE
result: 0.666

query: Identify measured amyloid nucleation score corresponding to LDFNLICLYFLM
result: 5.37

query: Identify measured amyloid nucleation score corresponding to PVFCPRV
result: -1.55

query: Identify measured amyloid nucleation score corresponding to NMDRVSFLR
result: -0.062

query: Identify measured amyloid nucleation score corresponding to FYFLKDY
result: -0.763

query: Identify measured amyloid nucleation score corresponding to YRKFENGVSVIRFEVQCTLV
result: 4.88

query: Identify measured amyloid nucleation score corresponding to SLMTQDCNFRYYLKRCI
result: 0.894

query: Identify measured amyloid nucleation score corresponding to FWLNLPAWISFAMFVCIVYV
result: -0.132

query: Identify measured amyloid nucleation score corresponding to YPSDLLDIWDDWICWCWELN
result: 0.225

query: Identify measured amyloid nucleation score corresponding to SANRTHNWY
result: -0.451

====

Experimental Details: amyloid nucleation score (Sup35N fusion, yeast selection) (log enrichment); library NNK1; higher = more nucleation; inactive = no reads after selection
sequences and their reported amyloid nucleation score

Known amyloid nucleation score results, listed for orientation:
INSERT INTO measurements (sequence_data, meas_value) VALUES
  ('NPVGSSRVVYRAPNHVIV', 1.18),
  ('EDTWVLLSHYHFNSMLSLLM', 0.161),
  ('SYIGDCEIFIKEPVGANNLE', -0.909);

query: Identify measured amyloid nucleation score corresponding to FCTLALHNTI
result: 1.24

query: Identify measured amyloid nucleation score corresponding to VSRWYVILNML
result: 4.03

query: Identify measured amyloid nucleation score corresponding to LNYFLLLMFQCDGRILFRFY
result: 0.652

query: Identify measured amyloid nucleation score corresponding to ILGQYGALYSIGTHWFLFVI
result: -0.755

query: Identify measured amyloid nucleation score corresponding to GLSGSLSSVIYSSEVRSR
result: 0.036

====

Experimental Details: amyloid nucleation score (Sup35N fusion, yeast selection) (log enrichment); library NNK1; higher = more nucleation; inactive = no reads after selection
Binning of amyloid nucleation score into classes: group A: < -0.4; group B: ≥ -0.4 and < 0.2; group C: ≥ 0.2

Answered examples (2):
INSERT INTO assay_data (substance, class_label) VALUES
  ('IMNMIA', 'group C'),
  ('WVSNCIFDAGLWRSYYRMGI', 'group C');

query: Band for ADKTGGPVTNITFLAWPWWG ?
result: group C

query: Band for ERSARGGHPMLAFYMTIPTP ?
result: group B

query: Band for WSYLQY ?
result: group B

query: Band for ILSVVYVLVCVVQVLCKQWH ?
result: group B

query: Band for MITIRVLEQDHLSLSLALSY ?
result: group A

query: Band for SDVLYIFTYMDKCQRSRLGV ?
result: group B

query: Band for PQRRSHREKA ?
result: group A

query: Band for DLNCFAFVWVIIYTRDGWTI ?
result: group B

query: Band for NPHEDRGLESQSAPGGRKWR ?
result: group C

query: Band for SCGNNYTSV ?
result: group B

====

Experimental Details: amyloid nucleation score (Sup35N fusion, yeast selection) (log enrichment); library NNK1; higher = more nucleation; inactive = no reads after selection
Entry flag: T if amyloid nucleation score reaches 0.05; F if it does not.

INSERT INTO results (sequence_data, class_label) VALUES
  ('YNELKFRGYYNRCLECGFVR', 'T'),
  ('LCWVYHYKGFKRGVCRRCES', 'F'),
  ('LLNAFWSFAY', 'T'),
  ('LAPNNYAFHVNKSWGMNLVW', 'T'),
  ('SCSYLSKYTYRREMVYGNEV', 'F');

query: API: above_or_equal(metric=amyloid nucleation score, cutoff=0.05) for item FTMYKCMCSMGRRNSAGGAS
result: F

query: API: above_or_equal(metric=amyloid nucleation score, cutoff=0.05) for item RHSITLFLVTVETVRACVFK
result: F

query: API: above_or_equal(metric=amyloid nucleation score, cutoff=0.05) for item RYICSYCYALCGFGDYYGGK
result: T

query: API: above_or_equal(metric=amyloid nucleation score, cutoff=0.05) for item RQFRIGNYENFATREWALGL
result: T

query: API: above_or_equal(metric=amyloid nucleation score, cutoff=0.05) for item EKYDGCIFEEKQMIAGAHGM
result: T

query: API: above_or_equal(metric=amyloid nucleation score, cutoff=0.05) for item GQPVFSLDCIYYLLYCFDAT
result: T

query: API: above_or_equal(metric=amyloid nucleation score, cutoff=0.05) for item RFLSVISDKTIAYWPSDVVS
result: T

query: API: above_or_equal(metric=amyloid nucleation score, cutoff=0.05) for item FCMTMRSARCGHLSMYCCFQ
result: T

query: API: above_or_equal(metric=amyloid nucleation score, cutoff=0.05) for item ILQIYLMWQVW
result: T

query: API: above_or_equal(metric=amyloid nucleation score, cutoff=0.05) for item SMHHGFYCDVWLGGVILRCK
result: F
